Source listed as PubChem BioAssay (NCI).

system: MALME-3M melanoma; experiment: NCI-60 one-dose screen, 48 h; settings: 10 µM unless noted
The panel holds about 83,000 compounds, 20% with a hit somewhere; the sample as a whole holds those more often. Active and inactive are the calls of the source. Rule for the calls: active = growth percent below 10; inactive = the rest.
Your reply should match one of these outcome classes. 1 (yes) (active), 0 (no) (inactive)

input: How was Brc1ccc([I+]c2ccc(Br)cc2)cc1 classified in this test?
output: 0 (no)

input: Per the records of this test, what outcome belongs to O=C(NC[C@H](O)CO)c1ccncc1Nc1ccc(I)cc1F ?
output: 1 (yes)

input: Can you look up the reported call for COCCN1CCN(Cc2ccc(-c3n[nH]c4c3C(=O)c3c(NC(=O)NN5CCOCC5)cccc3-4)cc2)CC1 for me?
output: 1 (yes)

input: Kindly provide the recorded test outcome for the following compound: COc1cc2nccc(Oc3ccc(NC(=O)C4(C(=O)Nc5ccc(F)cc5)CC4)cc3)c2cc1OC
output: 1 (yes)

input: For Cc1cc(C2(c3ccc(O)c(C)c3)OS(=O)(=O)c3ccccc32)ccc1O , which call appears in the assay record?
output: 0 (no)

input: Just curious, what result did O=C(c1ccc(/C=C/c2n[nH]c3ccccc23)cc1)N1CCNCC1 get here?
output: 0 (no)

input: Answer briefly: the call reported for Nc1cc(C(F)(F)F)c(-c2cc(N3CCOCC3)nc(N3CCOCC3)n2)cn1 in this assay.
output: 1 (yes)

input: What call does the record list for C=CC(=O)Nc1cccc(Oc2nc(Nc3ccc(N4CCN(C)CC4)cc3)nc3ccsc23)c1 ?
output: 1 (yes)

input: Name the outcome recorded for COC(=O)C1=C(C(=O)OC)C23C=C(C)C1C2=C(C)C1(CC1)[C@@](C)(O)C3=O (some centres not stated) in the assay.
output: 1 (yes)

input: What classification did C[C@]12O[C@H](C[C@]1(O)CO)n1c3ccccc3c3c4c(c5c6ccccc6n2c5c31)CNC4=O end up with in this test?
output: 1 (yes)

input: Dear colleague, could you share the recorded outcome for CCCCCCCC(=O)SCC/C=C/[C@@H]1CC(=O)NCc2nc(co2)C2=N[C@@](C)(CS2)C(=O)N[C@@H](C(C)C)C(=O)O1 when you have a moment?
output: 1 (yes)

input: Hello, I am checking results. What call was entered for Nc1ccc(S(=O)(=O)O)c2cc(S(=O)(=O)O)cc(O)c12 ?
output: 0 (no)

input: Look up the recorded call for Cc1nn(-c2nc3ccccc3[nH]2)c2c1C(c1ccc(O)cc1)CC(=O)N2 (configuration not stated) in this test.
output: 0 (no)

input: Test call for this compound, please: COc1cc(Nc2ncc(F)c(Nc3ccc4c(n3)N(COP(=O)(O)O)C(=O)C(C)(C)O4)n2)cc(OC)c1OC
output: 0 (no)

input: How did this test come out for CCCCOc1nc2cc(Cl)ccc2cc1/C=C/c1cc(/C=C/c2cc3ccc(Cl)cc3nc2OCCCC)n(-c2ccccc2)n1 ?
output: 0 (no)

input: GET /call?item= O=C(NOCCO)c1cc(CN2OCCCC2=O)c(F)c(F)c1Nc1ccc(I)cc1F returns the recorded outcome of this test.
output: 1 (yes)

input: Just curious, what result did C=CC(=O)N(C)[C@H]1C[C@H]2OC(C)(C1OC)n1c3ccccc3c3c4c(c5c6ccccc6n2c5c31)C(=O)NC4 (some centres not stated) get here?
output: 1 (yes)

input: Fill in: this test's call for COc1ncc(-c2ccc3nccc(-c4ccnnc4)c3c2)cc1NS(=O)(=O)c1ccc(F)cc1F is ___
output: 1 (yes)

input: Hi team, can someone confirm the assay call for CNS(=O)(=O)Nc1nccc(Cc2c(C)c3ccc(Oc4ncccn4)cc3oc2=O)c1F ?
output: 1 (yes)

input: Recorded test outcome, item CC[n+]1c(/C=C/C=C2\N(C)c3ccccc3C2(C)C)sc2ccccc21
output: 0 (no)

input: Tell me the assay call for CN1CC[C@@H](c2c(O)cc(O)c3c(=O)cc(-c4ccccc4Cl)oc23)[C@@H]1CO please.
output: 1 (yes)

input: Dear all, I need the recorded test outcome for COC[C@@H](C)n1c(C2CCOCC2)nc2c1C1C=C(OC)C(c3c(C)noc3C)=CC1N=C2 (some centres not stated) , thank you.
output: 0 (no)

input: Record request — test call for O=c1nc2c(-c3nc4ccccc4s3)n[nH]n2c2sc3c(c12)CCCC3
output: 0 (no)

input: Test call, this compound: CC(C)CC(=O)Nc1n[nH]c2c1CN(C(=O)C1CCN(C)CC1)C2(C)C
output: 0 (no)

input: // return assay outcome for CN1CCN(c2ccc(OC(F)(F)F)c(Nc3ncc4c(n3)-c3c(c(C(N)=O)nn3CCO)CC4)c2)CC1
output: 0 (no)

input: Which outcome did this test record for the compound C1=C\COCc2cc(ccc2OCCN2CCCC2)Nc2nccc(n2)-c2cccc(c2)COC/1 ?
output: 1 (yes)

input: Any idea what this test logged for Cc1ccc(NC(=O)c2ccc(CN3CC[C@H](N(C)C)C3)c(C(F)(F)F)c2)cc1Nc1nccc(-c2cncnc2)n1 ?
output: 1 (yes)

input: Hello, I am checking results. What call was entered for COc1cc(Nc2ncc(F)c(Nc3ccc4c(n3)NC(=O)C(C)(C)O4)n2)cc(OC)c1OC ?
output: 0 (no)

input: Hey, what did the test say about Cc1ccsc1C(NC(=O)c1ccccc1)c1cc(Cl)c2cccnc2c1O (configuration not stated) ?
output: 0 (no)

input: I'd appreciate the recorded outcome for C[C@H](NC(=O)c1c(N)nn2cccnc12)c1cc2cccc(C#Cc3cnn(C)c3)c2c(=O)n1-c1ccccc1 from this test.
output: 0 (no)

input: Any idea what this test logged for COc1cc(NCCCN)c2ncccc2c1 ?
output: 0 (no)

input: Can you look up the reported call for COC(=O)N[C@@H](C)CNc1nccc(-c2cn(C(C)C)nc2-c2cc(Cl)cc(NS(C)(=O)=O)c2F)n1 for me?
output: 1 (yes)

input: What outcome does the record of this test show for c1cc[n+](Cc2c3ccccc3cc3c2ccc2ccccc23)cc1 ?
output: 1 (yes)

input: Can you look up the reported call for COc1cc2c(c(OC)c1)C1c3ccccc3NC(=O)N1CC2 (configuration not stated) for me?
output: 0 (no)

input: Assay result, entry O=C(Nc1cnn2ccc(N3CCC[C@@H]3c3cc(F)ccc3F)nc12)N1CC[C@H](O)C1 — outcome?
output: 0 (no)

input: So what was the verdict on CC(C)NC[C@@H](C(=O)N1CCN(c2ncnc3c2[C@H](C)C[C@H]3O)CC1)c1ccc(Cl)cc1 in this test?
output: 0 (no)

input: Per the assay record, what outcome was assigned to COc1ccc(Cl)c(Nc2nc3ccccc3nc2NS(=O)(=O)c2cccc(NC(=O)C(C)(C)N)c2)c1 ?
output: 0 (no)
